Source of measurements: the nanobody polyreactivity screen of Harvey et al. (2022)

# EXPERIMENT_DESCRIPTION: yeast display, Sf9 membrane polyspecificity reagent, FACS + sequencing; frameworks hold sequencing errors
REPORTED_ENDPOINT: polyreactivity (PSR sort gate)

* QVHLVESGGGLVQAGGSLRLSCAASGLIFSFYPMGWYRQAPGKERELVAGINWRGGSTYYADSVKGRFTISRDNAKNTVYLQMNSLKPEETAVYYCAAPSYYYGYWGQGTQVTVLS | high polyreactivity
* QVQLVESGGGLVQAGGSLRLSCAASGRIFIAYAMGWYRQAPWKEREFVAAISSRGGSTYYADSVKGRFTISRDNAKNTVYLQMNSLKPEDTAVYYCGAWTLYWSHTTWSYDYWGQGTQVTVSS | low polyreactivity
* QVQLVESGGGLVQAGGSLRLSCAASGFTFGRIAMGGYRQAPGKERELVASIDWSGGSTYYADSVKGRFTISRDNAKNTVYLQMNSLKPEDTAVYYCAVGPNSVGNRSYGFDYWGQGTQVTVSS | low polyreactivity
* QVQLVESGGGLVQAGGSLRLSCAASGRTLWSYTMGWYRQAPGKESELVARITIGGSTNYADSVKGRFTISRDNAKNTVYLQMNSLKPEDTAVYYCNARASYSYGSYLSKSYGYDYWGQGTQVTVSS | high polyreactivity
* QVQLVESGGGLVQAGGSLRLSCAASGSIFRPYVMGWYRQAPGKERELVAAISSRGGDTYYADSVKGRFTISRDNAKNTVYLQMNSLKPEDTAVYYCAAVEFRDSTFVVVSSPTSKSDYWGQGTQVTVSS | low polyreactivity
* QVQLVESGGGLVQAGGSLRLSCAASGSTFALYAMGWYRQAPGKERELVASITLSGGRTYYADSVKGRFTISRDNAKNTVYLQMNSLKPEDTAVDYCNAEDYDWMDYWGQGTQVTVSS | high polyreactivity
* QDQLVESVVCLVQAGLSLRLSGASSVRIFRYYAMGWYRQAHGKERELVAAINSDGRTYYADSVKGRFTISRDNANNTVYLQMNSLKPEDTAVYYCAADHHSYRYGGYYYWGQGTQVTVAS | low polyreactivity
* QVQLVESGGGLVQAGGSLRLSCAASGSTFRLNAMGWYRQAPGKERELVAAISWTGGSTYYADSVKGRFTISRDNAKNTVSLQMNSLKPEDSAVYYCATVSYYDRYDYDYWGQGTQVTVSS | low polyreactivity
* QVQLVESGGGLVQAGGSLRLSCAASGFTFRWNGMGSYRQAPGKERELVAAISYDGTGTYYADSVKGRFTISRDNAKNTVYLQMNSLKPEDTAVYYCAKTYRDDTSLSGFDSWGQGTQVTVSS | high polyreactivity
* QVQLEESGGGLVQAGGSLRLSCAASGRILVKNTMGWYRQAPGKERELVAAITSGGNTYYADSVKGRFTISRDNAKNTVYLQMNSLKPEDTAVYYCNKVSNRSGYYWGQGTQVTVSS | high polyreactivity
* QVQLVESGGGLVQAGGSLRLSCAASGFIFASNAMGWYRQAPGKERELVAAITRSGGITYYADSVKGRFTISRDNAKNTVYLQMNSLKPEDTAVYYCNKGRRTKNSAYYDYWGQGTQVTVSS | high polyreactivity

###

# EXPERIMENT_DESCRIPTION: yeast display, Sf9 membrane polyspecificity reagent, FACS + sequencing; frameworks hold sequencing errors
REPORTED_ENDPOINT: polyreactivity (PSR sort gate)

• QDQLVESGGGLVQAGGSLRLSCAASGSIFGAYARGWYRQAPGKERELVAAISGSGTSTYYADSVKGRFTISRDNAKNTVYLQMNSLKPEDTAVYYCAADGTYFYIYLGDRFDYWGQGTQVTVSS = low polyreactivity
• QVDLVASGGGLVQAGGSLRLSCAASGNIFANYAMGSYRQAPGKERELVAAIRWSASRTYYADSVKARFTISRDNAKNSVYFQLNSLKPEDTAVYYCAATIYTFWDYYYDYWGQGTQVTVSW = high polyreactivity
• QVQLVDSGGGLLQAGASLRLSCAASGITFYINAMGWYRQPPGKERALVAVIDSRGSSTFYADSVKGRFTISRHNAKNSVYLQMNSLKPEYTAVYYCAAEPDTYWYTYDYWGQRTQVTVSS = low polyreactivity
• QVQLVESGVGLVQAGGSLRLSCAASGSTFEYNAMGWYRQAPGKERELVASSTNYADSVKGRFTISRDNAKNTVYLQMNSLKPEDTAVYYCAREQGVNRNHDYWGQGTQVTVSS = low polyreactivity
• QDQLVESGGGLVQAGGSRRLSCAASGSIFIYAMGWYRQAPGNERELVATIDSGGSTNYADSVKGRFTISRDNAKNTFYLQMNSLKPEDTAVYYFAARPYTTYHYVDDYWGQGTQVTVSS = high polyreactivity
• QVQLVESGGGLVQAGGSLRLSCAASGFTISVYVMGWYRQAPGKERELVAAISSSGGSTYYADSVKGRFTISRDNAKNTVYLQMNSLKPEDTAVYYCNAAGYWSYAYYWGQGTQVTVSS = high polyreactivity
• QVQLVESGGGLVQAGGSLRLSCAASGFIFRLYAMGWYRQAPGKERELVAAISTGGGRTYYADSVKGRFTFSGDNAKNTVYLQMNSLKPEDTADYDCNTLVEPHYDYWGQGTQVTVSS = high polyreactivity
• QVQLGESGGGLVQAGGSLRLSCAASGITFERNAMGWYRQAPGKERELVAAWSGGGTYYADSVKGRFTISRDNAKNTVYLQMDSLKPEDTAVYYCAADYRYDLSIGVNYWGQGTQVTVSS = low polyreactivity
• QVQLVESGGGLVQAGGSLRISCAASGRIYYRYAMGWYRQAPGKERELVASISGSGGRTYYADSVKGRFTISRDNAKNTVYLQMNSLKPEDTAVYYCAARIRPSYDWGQGTQVTVSS = high polyreactivity
• QVQLVESGGGLVQAGGSLRLSCAASGIIFGFYAMGWYRQAPGKERELVAAITNDGGITNYADSVKGRFTISRDNAMNTVYLQMNSLKPEDTAVYYCAKDQWPWVRDSLYTLRYDYWGQGTQVTVSS = low polyreactivity
• QVQLVESGGGLVQAGGSLRLSCAASGRIFFPNPMGWYRQAPGKDREFVAGITVSGGSTYYADSVKGRFTISRDNAKNTVYFQMNSLKPEDTAVYYCGAYWAQGTRYEYRLNYWGQGTLVTVSS = low polyreactivity
